Reference for the values: the supplement of paper PMC13380429

# Test system: Vero E6 infected with SARS-CoV-2
# ASSAY NAME: SARS-CoV-2 infection rate relative to infected DMSO; higher = more infection, active = 60 or less
# TEST PARAMETERS: 24 h
molecules and their reported SARS-CoV-2 infection rate
Give a bare numeral; the unit % is implied.

Worked cases, SARS-CoV-2 infection rate given:
c1cc(Nc2cc(C3CC3)n[nH]2)nc(Nc2ccc3[nH]cnc3c2)n1 (0.833333 µM) : 110
O=C(NOCC1CC1)c1ccc(F)c(F)c1Nc1ccc(I)cc1Cl (10 µM) : 100

**Q:** Look up SARS-CoV-2 infection rate of O=C(O)c1ccc(-n2nc(-c3ccccc3O)nc2-c2ccccc2O)cc1 [deferasirox] (0.833333 µM) and report it.
**A:** 114
